TGI listing for selected compounds.
system: SW-620 colon; experiment: NCI tumour cell line growth inhibition, 48 h
Endpoint label: TGI

compound=COc1cc(C(=O)c2c(-c3ccccc3)oc3c(OC)cccc23)cc(OC)c1O assay_value="> 100 µM"
compound=CN(C)CCN=C1c2ccccc2-c2c(=O)n(CCN(C)C)c(O)c3cccc1c23 assay_value="0.493 µM"
compound="CCCOP1(=O)C=C(O)C(Cl)=C(C)C1 (stereo not given)" assay_value="> 100 µM"
compound=CC1(C)CCC2(CC1)N[C@@H](C(=O)N[C@@H]1CC[C@@H](C(N)=O)OC1)[C@H](c1ccnc(Cl)c1F)[C@]21C(=O)Nc2cc(Cl)ccc21 assay_value="23.1 µM"
compound=CCC1=C(C)C(=O)N/C1=C\c1[nH]c(C)c([C@H](C)CCN)c1C assay_value="35.1 µM"
compound=COc1ccc2c(c1)[C@@H]1c3cc(OC)c(OC)cc3CCN1CCC2 assay_value="> 100 µM"
compound="COC(=O)C1C(O)C(C)C(=O)C(C)/C=C\\C=C(C)C(=O)Nc2c(C)c(OC(C)=O)c3c(c2O)C(=O)C(C)=C2OCOC(=C23)C(C)=CC(C)(O)C(O)C(C)C1O (stereo not given)" assay_value="> 100 µM"
compound=O=Cc1c(O)ccc2ccc(O)c(-c3c(O)ccc4ccc(O)cc34)c12 assay_value="> 100 µM"
compound=c1ccc(NNC2=NCCN2)cc1 assay_value="> 100 µM"
compound=O=[N+]([O-])c1ccc(C(Br)c2ccc([N+](=O)[O-])cc2)cc1 assay_value="12 µM"
compound=O=C(Nc1cccc(-n2ccc3c(NC(=O)c4ccccc4)nccc32)c1)Nc1ccc(Cl)c(C(F)(F)F)c1 assay_value="> 100 µM"
compound=CCCC(=O)N(C(=O)CCC)C1=C(Cl)C(=O)c2ccccc2C1=O assay_value="14.5 µM"
compound=Cc1ccc(/C(=N/NS(=O)(=O)c2ccc([N+](=O)[O-])cc2)Sc2cc(Cl)c(C)cc2S(N)(=O)=O)cc1 assay_value="> 100 µM"
compound=NC(=S)N/N=C/c1c[nH]c2ccccc12 assay_value="> 100 µM"
compound=O=c1c2c([nH]c3ccccc13)CCCC2 assay_value="> 100 µM"
compound="CNC(=O)C(CCc1ccccc1)NC(=O)C(CC(=O)NO)CC(C)C (stereo not given)" assay_value="> 25 µM"
compound=c1cc(-c2ccc(-c3ccc(-c4ccc(-c5cccc6nsnc56)[nH]4)c4nsnc34)[nH]2)c2nsnc2c1 assay_value="> 100 µM"
compound="CCOC(=O)C(C(CC(=O)OC)NC(=O)OCc1ccccc1)C1(C)OCCO1 (stereo not given)" assay_value="> 100 µM"
compound=COc1cc(/C=C/C(=O)Oc2ccc(NC(C)=O)cc2)ccc1C(=O)OCc1ccccc1 assay_value="> 100 µM"
compound=O=C1c2ccccc2C(=O)N1C/C=N/NS(=O)(=O)c1ccc(F)cc1 assay_value="> 100 µM"

* * *

test system: SK-OV-3 ovarian; experiment: NCI tumour cell line growth inhibition, 48 h
Endpoint label: TGI

molecule=CCN1C(=O)C(=C/C=C/c2ccc(OC)cc2)C(=O)N(CC)C1=S assay_value="57.8 µM"
molecule=CCOC(=O)C1C(c2ccccc2)=C(c2ccccc2)C(c2ccccc2)=C1c1ccccc1 assay_value="49 µM"
molecule=CC(=O)[CH-]C(=O)c1ccccc1.CC(=O)[CH-]C(=O)c1ccccc1.CCN(CC)CC[O-].CCN(CC)CC[O-].Cl.[Hf+4] assay_value="> 100 µM"
molecule="O=C1c2ccccc2C(=Nc2ccc3ccccc3c2)C1(C1=C(c2ccccc2)C(=Nc2ccc3ccccc3c2)c2ccccc21)c1ccccc1 (stereo not drawn)" assay_value="> 100 µM"
molecule="C=C1CC2(OC1=O)C(=O)N(C)c1ccc(I)cc12 (stereo not drawn)" assay_value="22.5 µM"
molecule=O=C1C=CC(=O)c2c1ccc1c3ccccc3n(CCCCCCCCn3c4ccccc4c4ccc5c(c43)C(=O)C=CC5=O)c21 assay_value="> 100 µM"
molecule=c1cc(-c2ccc(-c3ccc(C4=NCCCN4)cc3)o2)ccc1C1=NCCCN1 assay_value="> 100 µM"
molecule="CN1CCCC1c1cccnc1.O=C(O)c1ccccc1O.O=C([O-])c1ccccc1[OH2+].O=C([O-])c1ccccc1[OH2+].O=C([O-])c1ccccc1[OH2+].[Cu+2] (stereo not drawn)" assay_value="> 100 µM"

* * *

tested on: MALME-3M melanoma; experiment: NCI tumour cell line growth inhibition, 48 h
Endpoint label: TGI (µM)

structure_smiles=O=C(NC(=S)Nc1ccccn1)c1ccccc1 tested_system="MALME-3M melanoma" value_operator=> assay_value=100
structure_smiles=c1cc(-c2ccc(-c3ccc(C4=NCCCN4)cc3)o2)ccc1C1=NCCCN1 tested_system="MALME-3M melanoma" value_operator=> assay_value=100
structure_smiles=CCOC(=O)NC(=O)c1cn(CCCOC(=O)CCCCCCCCC(=O)OCCCn2cc(C(=O)NC(=O)OCC)c(=O)n(C)c2=O)c(=O)n(C)c1=O tested_system="MALME-3M melanoma" value_operator=> assay_value=100
structure_smiles=CCn1c2ccccc2c2cc(/C=C(/C#N)C(N)=S)ccc21 tested_system="MALME-3M melanoma" value_operator== assay_value=48.5
structure_smiles=COc1cccc(/C=C/c2ccc(S(N)(=O)=O)cc2)c1 tested_system="MALME-3M melanoma" value_operator=> assay_value=100
structure_smiles=COc1ccc2c3c1O[C@H]1[C@@H](O)CC[C@@]4(O)[C@@H](C2)N(C)CC[C@]314 tested_system="MALME-3M melanoma" value_operator=> assay_value=100
structure_smiles=O=C1O[C@@H](c2ccccc2)C[C@H]1CN1CCOCC1 tested_system="MALME-3M melanoma" value_operator=> assay_value=100
structure_smiles=Cn1c(=O)n(CCCO)c(=O)c2c1nc(Oc1cccc(OC(F)(F)F)c1)n2Cc1ccc(Cl)cc1 tested_system="MALME-3M melanoma" value_operator== assay_value=31.6
structure_smiles=N#C/C(=C\c1cn(Cc2ccccc2)c2ccccc12)C(=O)Nc1ncc(Cc2ccccc2Cl)s1 tested_system="MALME-3M melanoma" value_operator== assay_value=4.14
structure_smiles=Nc1ccccc1C#C/C=C\C#Cc1cnccn1 tested_system="MALME-3M melanoma" value_operator== assay_value=58.6

* * *

tested on: A498 renal; assay: NCI tumour cell line growth inhibition, 48 h
Endpoint label: TGI

compound="Cn1c(C(O)C2(c3cccnc3)SCCCS2)cc2ccccc21 (configuration not stated)" assay_value="> 100 µM"
compound=CCCCc1c2c(nc3c1CCCC3=O)C(=O)CCC2 assay_value="> 100 µM"
compound=CCC1=C(C)C(=O)N/C1=C\c1[nH]c(C)c([C@H](C)CCN)c1C assay_value="33.4 µM"
compound=NC(=S)N/N=C/c1c[nH]c2ccccc12 assay_value="> 100 µM"
compound=CC(/C=N/N(C)C1=NCCCN1)=N/N(C)C1=NCCCN1 assay_value="> 100 µM"
compound="CC(C)=CCCC(C)[C@H]1CC(O)C2(C)C3=CCC4C(C)(C)[C@@H](O)CC[C@]4(C)C3=CC[C@]12C (some centres not stated)" assay_value="16.3 µM"
compound=CCCSc1ccc2nc(NC(=O)OC)[nH]c2c1 assay_value="5.03 µM"
compound=Oc1ccc(-c2nc3ccc4ccccc4c3c3c2CCCC3)c(O)c1 assay_value="> 100 µM"
compound=COc1ccc(-c2cn3c(nc4ccccc43)c(/C=C/c3cccs3)n2)cc1 assay_value="> 100 µM"
compound="CCCCC1CC(c2ccc(Cl)cc2)=NO1 (configuration not stated)" assay_value="> 100 µM"
compound=CC1=C(C(=O)Nc2ccc([N+](=O)[O-])cc2)C(c2cccc([N+](=O)[O-])c2)C(C(=O)Nc2ccc([N+](=O)[O-])cc2)=C(C)N1 assay_value="> 100 µM"
compound=O=c1[nH][nH]c(=O)n1Cc1cccc(Cn2c(=O)[nH][nH]c2=O)c1 assay_value="> 100 µM"
compound=COc1ccc2c(c1)[C@@H]1c3cc(OC)c(OC)cc3CCN1CCC2 assay_value="> 100 µM"
compound=c1ccc2c(c1)c1ccccc1c1n[se]nc21 assay_value="67.1 µM"
compound="CNC(=O)C(CCc1ccccc1)NC(=O)C(CC(=O)NO)CC(C)C (configuration not stated)" assay_value="> 25 µM"
compound=COc1cc(/C=C/C(=O)Oc2ccc(NC(C)=O)cc2)ccc1C(=O)OCc1ccccc1 assay_value="> 100 µM"
compound=C=C1C(=O)O[C@H]2[C@H]1CC/C(CNC(=O)c1cccc3ccccc13)=C\CC[C@@]1(C)O[C@@H]21 assay_value="19.2 µM"
compound=O=C1C=CC(=O)c2c(O)c(N3CCN(c4ccccn4)CC3)c(Cl)c(O)c21 assay_value="9.68 µM"
compound=CCN(CC)CCn1ncc2c3c(=O)c4cccnc4n(CCN(CC)CC)c3ccc21 assay_value="> 10 µM"
compound=Nc1c(Br)cc2c(c1Br)Cc1cc(Br)ccc1-2 assay_value="> 100 µM"
compound=C/C(=N\NC(=S)Nc1ccccc1)c1nc2ncccc2[nH]1 assay_value="33.1 µM"
compound=Nc1n[n+](=O)c2ccccc2n1O assay_value="> 100 µM"
